- target system: UniProtKB A4IKE7
- experimental details: fluorescence titration (excitation […] nm, emission […] nm)
pKd: −log10 of the molar value.

| compound | pKd |
| --- | --- |
| CNc1ccccc1C(=O)O[C@H]1[C@@H](O)[C@H](n2cnc3c(N)ncnc32)O[C@@H]1CO[P@@](=O)(O)O[P@](=O)(O)OP(=O)(O)O (mixture of isomers) | 6.03 |
